Molecular target: SHP-1 (Homo sapiens)
Construct: using the catalytic core of a human recombinant PTP as the enzyme
Sequence (P29350 244-515 limits assumed): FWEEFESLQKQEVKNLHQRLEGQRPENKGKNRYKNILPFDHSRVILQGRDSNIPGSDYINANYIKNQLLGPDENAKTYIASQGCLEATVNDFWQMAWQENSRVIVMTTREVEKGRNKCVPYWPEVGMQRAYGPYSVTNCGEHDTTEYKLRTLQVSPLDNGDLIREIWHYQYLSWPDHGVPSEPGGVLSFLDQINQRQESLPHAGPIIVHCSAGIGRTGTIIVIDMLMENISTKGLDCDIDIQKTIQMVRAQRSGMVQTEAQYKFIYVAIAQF
Assay: PTP Enzyme Assay (DiFMUP), SHP-1
Details: 20 μM DiFMUP substrate; catalytic core of human recombinant PTP; triplicates; read-out: IC50 value in respect of SHP-1
Property measured: pIC50
The read-out pIC50 is expressed as -log10 of concentration in moles per litre.

Answered cases to consult:
CCCCc1ccc(C#Cc2ccc(CN(C(=O)Cc3cccs3)c3ccc(F)c(C(=O)O)c3)cc2)cc1 : 5.43
CCCCCCCCC#Cc1ccc(CN(C(=O)CCC2CCCC2)c2ccc(O)c(C(=O)O)c2)cc1 : 5.92
CCCCCCCCC#Cc1ccc(CN(Cc2ccc(OCC(=O)O)c(C(=O)O)c2)C(=O)/C=C/c2ccccc2)cc1 : 5.80

# context switch: different molecule, same pIC50
Query: Which value of pIC50 has been reported for CCCCc1ccc(C#Cc2ccc(CN(C(=O)C(C)(C)C)c3ccc(C(=O)O)c(O)c3)cc2)cc1 in the records?
Reply: 5.52
